system: SUDHL5; assay: Induction of cytotoxicity in SUDHL5 cells, CellTiter-Glo (Assay 6); type: cell-based; details: SUDHL5, 5 hours incubation, median, read-out: Cytotox SUDHL5 [M] (median)
# IC50 per entry
Write the number in M without appending the unit.

(Q) Request - read-out IC50 | tested on SUDHL5 | compound Cc1c2c(nn1C)CN(S(=O)(=O)c1ccc(N3CCOCC3)nc1)Cc1ccccc1Cn1c(C(=O)O)c(CCCOc3cccc4ccccc34)c3cccc-2c31 (single isomer, unassigned; enantiomer 2) [Example 19]
(A) 2.3e-05

(Q) Request - read-out IC50 | tested on SUDHL5 | compound CCc1c2c(nn1C)COCc1ccccc1Cn1c(C(=O)O)c(CCCOc3cccc4ccccc34)c3ccc(F)c-2c31 (single isomer, unassigned; enantiomer 2) [Example 72]
(A) 8.5e-06

(Q) Request - read-out IC50 | tested on SUDHL5 | compound Cc1c2c(nn1C)CN(C(=O)NCC1CCOCC1)Cc1ccccc1Cn1c(C(=O)O)c(CCCOc3cccc4ccccc34)c3cccc-2c31 (single isomer, unassigned; enantiomer 2) [Example 29]
(A) 1.4e-05

(Q) Request - read-out IC50 | tested on SUDHL5 | compound Cc1c2c(nn1C)COCc1ccccc1Cn1c(C(=O)O)c(CCCOc3cccc4cc(F)ccc34)c3ccc(Cl)c-2c31 (single isomer, unassigned; enantiomer 2)
(A) 9.3e-07

(Q) Request - read-out IC50 | tested on SUDHL5 | compound Cc1c2c(nn1C)COCc1cccnc1Cn1c(C(=O)O)c(CCCOc3cccc4ccccc34)c3cccc-2c31 (single isomer, unassigned; enantiomer 1) [Example 5]
(A) 4.6e-06

(Q) Request - read-out IC50 | tested on SUDHL5 | compound CCc1c2c(nn1C)COCc1ccccc1Cn1c(C(=O)O)c(CCCOc3cccc4cc(F)ccc34)c3ccc(F)c-2c31 (single isomer, unassigned; enantiomer 2) [Example 75]
(A) 5.2e-06

(Q) Request - read-out IC50 | tested on SUDHL5 | compound Cc1c2c(nn1C)CN(C(=O)NC1CCOCC1)Cc1ccccc1Cn1c(C(=O)O)c(CCCOc3cccc4ccccc34)c3cccc-2c31 (single isomer, unassigned; enantiomer 2) [Example 26]
(A) 1.6e-05

(Q) Request - read-out IC50 | tested on SUDHL5 | compound Cc1c2c(nn1C)COCc1ccccc1Cn1c(C(=O)O)c(CCCOc3cccc4ccccc34)c3ccc(Cl)c-2c31 (single isomer, unassigned; enantiomer 1) [Example 37]
(A) 8.6e-07

(Q) Request - read-out IC50 | tested on SUDHL5 | compound Cc1c2c(nn1C)COCc1nccnc1Cn1c(C(=O)O)c(CCCOc3cccc4ccccc34)c3ccc(Cl)c-2c31 (single isomer, unassigned; enantiomer 2)
(A) 4.8e-06

(Q) Request - read-out IC50 | tested on SUDHL5 | compound Cc1c2c(nn1C)COCc1ncccc1Cn1c(C(=O)O)c(CCCOc3cccc4ccccc34)c3cccc-2c31 (single isomer, unassigned; enantiomer 1) [Example 8]
(A) 3e-06
